# pIC50 values compiled below
# system_name: UniProt:Q96EB6
# Sequence (Q96EB6 1-747): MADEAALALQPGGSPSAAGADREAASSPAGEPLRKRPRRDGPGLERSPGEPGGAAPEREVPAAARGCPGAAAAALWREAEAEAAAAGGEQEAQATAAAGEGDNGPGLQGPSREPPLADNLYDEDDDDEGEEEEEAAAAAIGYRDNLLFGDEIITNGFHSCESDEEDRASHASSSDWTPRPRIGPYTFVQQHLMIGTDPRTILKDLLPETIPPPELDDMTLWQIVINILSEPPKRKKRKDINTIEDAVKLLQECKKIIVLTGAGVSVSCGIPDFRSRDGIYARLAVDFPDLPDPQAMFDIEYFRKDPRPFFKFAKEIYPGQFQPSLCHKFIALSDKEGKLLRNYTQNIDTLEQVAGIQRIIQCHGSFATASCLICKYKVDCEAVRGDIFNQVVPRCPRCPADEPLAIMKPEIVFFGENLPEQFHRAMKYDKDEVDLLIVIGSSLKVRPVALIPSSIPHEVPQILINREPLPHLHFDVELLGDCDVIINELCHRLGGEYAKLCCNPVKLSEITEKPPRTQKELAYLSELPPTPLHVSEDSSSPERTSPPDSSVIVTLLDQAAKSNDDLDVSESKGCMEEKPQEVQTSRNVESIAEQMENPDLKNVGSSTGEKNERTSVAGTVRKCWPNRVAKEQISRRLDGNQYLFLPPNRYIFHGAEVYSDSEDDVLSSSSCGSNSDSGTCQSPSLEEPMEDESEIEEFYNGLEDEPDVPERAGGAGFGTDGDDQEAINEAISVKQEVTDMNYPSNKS
Starred links: 1 amine or outer side, 2 acyl side, 3 side chain; linkers in the order of their positions; H or OH if unused. Non-standard residues stand in square brackets, D forms with d. Residues, ends and D or L forms follow the SMILES beside them. Lys(thiomyristoyl) = CCCCCCCCCCCCCC(=S)NCCCC[C@H](N)C(=O)O; X1 = CCCC(=S)NCCCC[C@H](N[*:1])C(=O)[*:2]
Note on units: pIC50 is unitless, being -log10 of a concentration expressed in mol/L.

Check out these entries, answers already filled in.
INSERT INTO results (molecule, system_name, property_name, value_reported) VALUES
  ('CCCC(=S)NCCCC[C@H](NC(=O)OCc1ccccc1)C(=O)Nc1ccccc1 [TB, reference compound]', 'UniProt:Q96EB6', 'pIC50', 5.02),
  ('CCCCCCCCCCCCCC(=S)NCCCC[C@H](NC(=O)[C@@H](NC(=O)[C@@H](NC(=O)[C@@H](N)CS)[C@@H](C)O)C(C)C)C(=O)N[C@H](C(=O)N[C@@H](CO)C(=O)N[C@@H](CC(C)C)C(N)=O)[C@@H](C)O [S2P03-tMyK] (H-CTV[Lys(thiomyristoyl)]TSL-NH2)', 'UniProt:Q96EB6', 'pIC50', 6.40);

**Query** Supply measured pIC50 of CCCC(=S)NCCCC[C@H](NC(=O)[C@@H](NC(=O)[C@@H](NC(=O)[C@H](CS)NC(=O)[C@@H](N)[C@@H](C)O)[C@@H](C)O)C(C)C)C(=O)N[C@H](C(=O)NCC(N)=O)[C@@H](C)CC [S2P04-tBuK] (H-TCTV[X1]IG-NH2) in your reply.
**Result** 6.60
